Reported Potency by item:
target: C-terminal-binding protein 1 (Homo sapiens) (UniProt Q13363); assay: qHTS for Inhibitors of the Phosphatase Activity of Eya2: Carboxyl-terminal binding protein (CtBP) Counterscreen for Cherry-picked Compounds; details: purified protein-protein binding, AlphaScreen, 3 h; series mostly up to 46.1 µM; also: potency is read from the fitted curve at half-maximal effect; nearly all actives have a fitted effect of over 65% in size
Out of some 1,300 compounds screened, about 420 (32%) were called active. Roughly 32% stayed inconclusive and do not appear here. Some of the results follow.
PARAMETER MEASURED: Potency

# ITEM SMILES, RESULT VALUE
data = [
    ("O=C(Cc1ccccc1)c1ccccn1", "10.7 µM (active)"),
    ("COC(=O)C1=C(c2ccc(F)cc2OCc2ccccc2)C[C@@H]2CC[C@H]1N2C(=O)NCc1ccc(N(C)C)cc1", "10.7 µM (active)"),
]
